Measurement record for Escherichia coli β-glucuronidase (EcGUS) (Escherichia coli, UniProt P05804); quantity recorded: pKi.
Answers are plain numbers, as −log10 of the molar value.

CC1=CC2(C)Oc3c(-c4ccccc4)c[nH]c(=O)c3C2C1C (centres unmarked); 4.12

stdin: Look up and state reported pKi for CC(=C[C@@H](C)[C@H]1CC[C@@H]2[C@]1(C)CC=C1[C@]23C=C[C@]2(C[C@@H](O)CC[C@]12C)OO3)[C@H](C)C(C)C
stdout: 4.05

----------
Each entry below carries its measured IC50, system: Escherichia coli β-glucuronidase (EcGUS) (Escherichia coli, UniProt P05804).
Sequence (P05804 whole entry): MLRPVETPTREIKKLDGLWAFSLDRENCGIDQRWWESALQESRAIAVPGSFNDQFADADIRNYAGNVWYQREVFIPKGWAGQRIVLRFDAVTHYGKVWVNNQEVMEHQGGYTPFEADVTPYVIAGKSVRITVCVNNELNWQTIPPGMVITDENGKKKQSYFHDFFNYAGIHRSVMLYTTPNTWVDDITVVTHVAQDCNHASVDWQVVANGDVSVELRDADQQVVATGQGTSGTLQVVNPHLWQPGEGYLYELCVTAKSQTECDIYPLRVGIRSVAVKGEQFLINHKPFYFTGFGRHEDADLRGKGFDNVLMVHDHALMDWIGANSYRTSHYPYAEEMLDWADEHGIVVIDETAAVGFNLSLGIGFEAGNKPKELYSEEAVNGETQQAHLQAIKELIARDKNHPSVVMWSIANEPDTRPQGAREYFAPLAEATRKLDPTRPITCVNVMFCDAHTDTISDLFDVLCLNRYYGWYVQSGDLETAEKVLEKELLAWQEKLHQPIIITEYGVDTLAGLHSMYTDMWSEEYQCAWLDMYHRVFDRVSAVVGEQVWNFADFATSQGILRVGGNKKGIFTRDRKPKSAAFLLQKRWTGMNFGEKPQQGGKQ

CC1=CC2(C)Oc3c(-c4ccccc4)c[nH]c(=O)c3C2C1C (stereo not drawn); 44.6 µM
O=C(O)[C@@H](O)[C@H]1OC(=O)[C@H](O)[C@H]1O [DSL, D-saccharic acid 1,4-lactone, reference compound]; 47.9 µM

// next item, IC50 requested
stdin: # return recorded IC50 for entry CC(=C[C@@H](C)[C@H]1CC[C@@H]2[C@]1(C)CC=C1[C@]23C=C[C@]2(C[C@@H](O)CC[C@]12C)OO3)[C@H](C)C(C)C
stdout: 21.6 µM
